Tested on: human Factor XI mRNA
Assay: Dose-dependent inhibition in HepG2 cells, electroporation (Example 5)
Type: cell-based
Conditions: 10000 nM, approx. 16 h, relative to untreated control cells
attribute-measured: percent inhibition of human Factor XI mRNA (%)
Field: numeric (%). Do not append units.

Use the examples below as a reference point.
[
  {
    "substance": "416838 (antisense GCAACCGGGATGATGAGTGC; 5-10-5 gapmer, wing sugar chemistry not given here, further chemistry not given here) [compound 416838]",
    "quantitative-result": 93
  },
  {
    "substance": "416892 (antisense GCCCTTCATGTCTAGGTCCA; 3-14-3 chimeric gapmer, wing sugar chemistry not given here, further chemistry not given here) [compound 416892]",
    "quantitative-result": 100
  }
]

Now let's try a different one.
Record 416864 (antisense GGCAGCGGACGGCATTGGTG; 5-10-5 gapmer, wing sugar chemistry not given here, further chemistry not given here) [compound 416864] ; system human Factor XI mRNA; percent inhibition of human Factor XI mRNA = 92

###

Test system: human Factor XI mRNA
Assay: Dose-dependent inhibition in HepG2 cells, electroporation (Example 5)
Type: cell-based
Conditions: 2500 nM, approx. 16 h, relative to untreated control cells
attribute-measured: percent inhibition of human Factor XI mRNA (%)
Provide only the numeric value, understood in %.

Examples from the recorded data:
[
  {
    "substance": "416892 (antisense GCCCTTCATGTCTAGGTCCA; 3-14-3 chimeric gapmer, wing sugar chemistry not given here, further chemistry not given here) [compound 416892]",
    "quantitative-result": 96
  },
  {
    "substance": "417002 (antisense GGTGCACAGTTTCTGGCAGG; 2-13-5 gapmer, wing sugar chemistry not given here, further chemistry not given here) [compound 417002]",
    "quantitative-result": 86
  }
]

Now for the substance whose percent inhibition of human Factor XI mRNA we want.
The substance listed as 416838 (antisense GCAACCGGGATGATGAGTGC; 5-10-5 gapmer, wing sugar chemistry not given here, further chemistry not given here) [compound 416838] has a reported percent inhibition of human Factor XI mRNA of 87

###

Experiment: Tolerability in Sprague-Dawley rats: hematology assays (Example 23)
Format: in vivo
Parameters: unit not given here
Details: blood
In the oligonucleotide strings, read from the 5' end, every base follows the letter of its sugar. An asterisk marks phosphorothioate; unmarked linkages are phosphodiester. Other units and linkages are bracketed, terminal groups are in braces. A string of capitals states the bases alone. e = 2'-O-(2-methoxyethyl) (MOE); [5mC] = 5-methylcytosine; d = 2'-deoxy (DNA)
attribute-measured: RBC
Enter the number alone.

// known answers, use as guide
[
  {
    "substance": "ISIS 416863: gapmer of Table 8 (antisense e[5mC]*eA*eG*e[5mC]*eG*dG*dA*d[5mC]*dG*dG*d[5mC]*dA*dT*dT*dG*eG*eT*eG*e[5mC]*eA)",
    "RBC": 7.6
  },
  {
    "substance": "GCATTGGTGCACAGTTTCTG (antisense; all C 5-methyl, all phosphorothioate, sugars by position not given here; MOE gapmer, 5-10-5) [ISIS 412224, 5-10-5 MOE gapmer]",
    "RBC": 7.4
  },
  {
    "substance": "ISIS 416859: gapmer of Table 8 (antisense eG*eA*e[5mC]*eG*eG*d[5mC]*dA*dT*dT*dG*dG*dT*dG*d[5mC]*dA*e[5mC]*eA*eG*eT*eT)",
    "RBC": 7.8
  },
  {
    "substance": "ISIS 416866: gapmer of Table 8 (antisense e[5mC]*eT*eG*eG*e[5mC]*dA*dG*d[5mC]*dG*dG*dA*d[5mC]*dG*dG*d[5mC]*eA*eT*eT*eG*eG)",
    "RBC": 7.8
  }
]

Next substance, RBC to be filled in.
The substance identified as ISIS 416856: gapmer of Table 8 (antisense eG*eG*e[5mC]*eA*eT*dT*dG*dG*dT*dG*d[5mC]*dA*d[5mC]*dA*dG*eT*eT*eT*e[5mC]*eT) registered its RBC at 7.7

Recorded values, source patent US20120083522A1.
